Tested on: HL-60
Test: Cytotoxicity against human HL-60 cells assessed as cell growth inhibition by MTT assay
Format: functional, cell-based
Measured IC50 by item
Your answer should be a plain number; it is taken to be in µM.

Example cases with answers are listed next.
| Compound | IC50 (µM) |
| --- | --- |
| CC(C)[C@@H](C)/C=C/[C@@H](C)[C@H]1CC[C@]2(O)C3=CC(=O)C4=CC(=O)CC[C@]4(C)[C@@]3(O)CC[C@]12C | 8.8 |
| COC(=O)[C@@]12CC[C@@]3(C)[C@]1(O)C(=O)C=C1[C@@]4(O)CC[C@H]([C@H](C)/C=C/[C@H](C)C(C)C)[C@@]4(C)CC[C@@]13OO2 | 32 |
| COC1(OC)CC[C@@]2(C)[C@H](C1)C(=O)C=C1[C@@H]2[C@H](OC(C)=O)C[C@]2(C)[C@@H]([C@H](C)/C=C/C(C)C(C)(C)O)CC[C@@H]12 (single isomer, unassigned) | 8.3 |
| C=C(CC[C@@H](C(=O)O)[C@H]1CC[C@H]2C3=C[C@@H](O)[C@@]45O[C@@H]4C(=O)C=C[C@]5(C)[C@H]3CC[C@]12C)C(C)C | 7.3 |
| CO[C@@H]1C=C2[C@@H]3CC[C@H]([C@H](C)/C=C/[C@H](C)C(C)C)[C@@]3(C)C[C@H]3O[C@@]23[C@@]2(C)CC[C@H](O)C[C@]12O | 6.1 |
| CC(C)[C@@H](C)/C=C/[C@@H](C)[C@H]1CCC(=O)[C@]23CC(=O)C4=CC(=O)CC[C@]4(C)[C@H]2CC[C@]13C [DANKASTERONE A] | 3.8 |
| CC(=O)O[C@@H]1C[C@]2(C)[C@@H]([C@H](C)/C=C/[C@H](C)C(C)(C)O)CC[C@H]2C2=CC(=O)[C@H]3CC(=O)CC[C@]3(C)[C@H]21 | 11 |
| COc1cc([C@@H]2c3cc4c(cc3[C@@H](O[C@@H]3O[C@@H]5CO[C@@H](C)O[C@H]5[C@H](O)[C@H]3O)[C@H]3COC(=O)[C@H]23)OCO4)cc(OC)c1O [ETOPOSIDE] | 2.1 |

# context switch: different compound, same IC50
(Q) Query IC50 for CO[C@@H]1C=C2C=CC3=C4C(=O)C[C@H]([C@H](C)/C=C/[C@H](C)C(C)C)[C@@]4(C)CC[C@]3(O)[C@@]2(C)CC1
(A) 25

----------
Test system: HL-60
Experiment: Cytotoxicity against human HL-60 cells assessed as cell growth inhibition by MTT assay
Type: functional, cell-based
Assay endpoint: IC50

Example cases with answers are listed next.
| Structure notation | IC50 |
| --- | --- |
| C=C(CC[C@@H](C(=O)O)[C@H]1CC[C@H]2C3=C[C@@H](O)[C@@]45O[C@@H]4[C@H](O)[C@@H]4O[C@@H]4[C@]5(C)[C@H]3CC[C@]12C)C(C)C | > 40 µM |
| CC(C)[C@@H](C)/C=C/[C@@H](C)[C@H]1C[C@@H](O)C2=C3C=CC4=CC(=O)CC[C@]4(C)[C@@]3(O)CC[C@@]21C | > 40 µM |

# context switch: different compound, same IC50
(Q) Query IC50 for COC(=O)[C@@]12CC[C@@]3(C)[C@]1(O)C(=O)C=C1[C@]4(O)CC[C@H]([C@H](C)/C=C/[C@H](C)C(C)C)[C@@]4(C)CC[C@@]13OO2
(A) > 40 µM
